meta.source: ChEMBL document CHEMBL3507680

- method: Human HepG2 cell viability assay in 384 well format
- Type: toxicity, cell-based
- Parameters: dose 125 nL, time 70.5 hour; concentration not given beside the values
- condition set: HepG2 cells, read-out: Inhibition
measurement kind: cytotoxicity at 70.5 h (%)
# unit: % | format: bare number

In the examples that follow, each entry is paired with its recorded cytotoxicity at 70.5 h.
- compound: "CCn1cc2c(n1)C(COC)CN(Cc1ccoc1)C2 (centres undefined)"
  units symbol: "%"
  cytotoxicity at 70.5 h: -15.1
- compound: "COc1ccc(CNc2c(C)nn(C(C)C)c2C)cc1OC"
  units symbol: "%"
  cytotoxicity at 70.5 h: -2.06
- compound: "CN(Cc1ccccc1)C1COC2(CCN(Cc3nccs3)CC2)C1 (centres undefined)"
  units symbol: "%"
  cytotoxicity at 70.5 h: 10
- compound: "Cc1nccn1-c1ncccc1NC(=O)CCOCC(C)C"
  units symbol: "%"
  cytotoxicity at 70.5 h: -7.64
- compound: "COc1cc(C(C#N)NC(=O)CC2=CCCCC2)cc(OC)c1OC (centres undefined)"
  units symbol: "%"
  cytotoxicity at 70.5 h: -5.49
- compound: "Cc1cccc(C(C)CNS(=O)(=O)CCCC#N)c1 (centres undefined)"
  units symbol: "%"
  cytotoxicity at 70.5 h: -8.11

Bench note: what cytotoxicity at 70.5 h did NC(=O)c1c(-c2ccc(Cl)cc2Cl)csc1NC(=O)CCC(=O)O show?
20.5

Any idea what its cytotoxicity at 70.5 h is? The compound is Cc1ncsc1CCNC(=O)Cn1nc(C)n(Cc2ccccc2)c1=O
-2.97

Tell me the measured cytotoxicity at 70.5 h of COc1ccc(CN(C)C(=O)CN2CC(n3cc(C)cn3)C2)cc1F , please.
-2.77

Looking for the measured cytotoxicity at 70.5 h of O=C(NCc1ccccn1)C1=NN(c2ccccc2)C(=O)CN1 , can you help?
-16.4

Suppose we examine the compound CCCOC(C)Cn1ccc2[nH]c(=O)c(C#N)cc2c1=O (centres undefined) ; what cytotoxicity at 70.5 h value has been reported?
10.5

Need cytotoxicity at 70.5 h of CN(C)c1cc2c(nn1)CCN(C(=O)c1cc3c(s1)CCCC3)C2 , thanks.
13.1

Consider the compound C[C@@H](N)C(=O)N1CCC(c2[nH]ncc2-c2ccccc2)CC1 and give its measured cytotoxicity at 70.5 h.
-8.76

###

- method: Human HepG2 cell viability assay in 384 well format
- Format: toxicity, cell-based
- Design: dose 125 nL, time 70.5 hour; concentration not given beside the values
- condition set: HepG2 cells, read-out: Inhibition
As shown below, each of these compounds has a reported cytotoxicity at 70.5 h value.
Please state the figure in %; there is no need to write the unit.

Record excerpt, results attached:
- compound: "CC(C)Nc1nc2c(s1)C(=O)CN(C(=O)NCCc1ccccc1)C2"
  measurement kind: "cytotoxicity at 70.5 h"
  readout value: -4.98
- compound: "O=C(COc1cccc(F)c1)N1C[C@@H](O)[C@H](N2CCCC2)C1"
  measurement kind: "cytotoxicity at 70.5 h"
  readout value: -10.1
- compound: "Cc1ccc(C)c(-n2cc(CN3CCOCC3)c(-c3ccccc3)n2)c1"
  measurement kind: "cytotoxicity at 70.5 h"
  readout value: -3.83
- compound: "CN(C)C(=O)COC[C@]12COC[C@H]1CN(Cc1ccccc1)C2"
  measurement kind: "cytotoxicity at 70.5 h"
  readout value: -2.22
- compound: "Cc1csc(C(=O)N2CC[C@H](Oc3cccnc3C)[C@@H](O)CC2)c1"
  measurement kind: "cytotoxicity at 70.5 h"
  readout value: 14
- compound: "CNc1cc2c(nn1)CCN(C(=O)c1cccc3c1OCCO3)C2"
  measurement kind: "cytotoxicity at 70.5 h"
  readout value: -0.154
- compound: "CN(Cc1noc(C(C)(C)C)n1)Cc1ccccc1N1CCCC1"
  measurement kind: "cytotoxicity at 70.5 h"
  readout value: -8.02
- compound: "Cc1cccc(N2CCc3ncc(CNc4ccccn4)n3CC2)n1"
  measurement kind: "cytotoxicity at 70.5 h"
  readout value: -3.22

Entry COCCN1C(=O)C2(CCC(C(=O)Nc3ccc(C)cc3)CC2)N=C1C (centres undefined) has what cytotoxicity at 70.5 h?
10.5

Entry CC(C)C(=O)NCc1cc(Br)ccc1F has what cytotoxicity at 70.5 h?
-9.54

What value of measured cytotoxicity at 70.5 h is listed for NC(=O)CN1CCCN(C(=O)c2ccn(-c3ccccc3)n2)CC1 ?
-3.77

So what's the measured cytotoxicity at 70.5 h for this one? CC(=O)N1CCCN(C(=O)Cc2c(C)nc(C)[nH]c2=O)CC1
-0.651

For the compound shown here, CS(=O)(=O)NCCCN1CCCC1c1ccccc1 (centres undefined) , give the reported cytotoxicity at 70.5 h.
20

###

- method: Human HepG2 cell viability assay in 384 well format
- Type: toxicity, cell-based
- Design: dose 125 nL, time 70.5 hour; concentration not given beside the values
- condition set: HepG2 cells, read-out: Inhibition
Here, each record is paired with measured cytotoxicity at 70.5 h data.
Give just the number in %; leave the unit off.

Which value of cytotoxicity at 70.5 h has been reported for Cc1cnc(C(=O)N2CCNCC2C(=O)NCc2ccncc2)cn1 (centres undefined) in the records?
3.98

cytotoxicity at 70.5 h for NCc1n[nH]c(-c2ccc(F)cc2)n1 ?
-0.714

Please look up its cytotoxicity at 70.5 h: COc1ccnc(N2CCN(C(=O)CCc3cnn(C)c3)CC2)n1
-11.9

Suppose we examine the molecule Cc1noc(C)c1C(=O)NCc1cccnc1N(C)C ; what cytotoxicity at 70.5 h value has been reported?
-9.96

GET /values?readout=cytotoxicity at 70.5 h&item= Cc1ccc(CN2CCN(C3CSCCSC3)CC2CCO)o1 (centres undefined)
-6.76

Given the molecule Cn1nccc1-c1cnc2n1CCNC21CCN(C(=O)C2(C)CC2)CC1 , what is its reported cytotoxicity at 70.5 h?
-9.28

Which measured cytotoxicity at 70.5 h value corresponds to O=C(CN(C1=NCCCC1)c1ccccc1)c1ccc(OC(F)F)cc1 ?
-4.12

Need cytotoxicity at 70.5 h of Cc1nn(C)c(C)c1-c1ccnc(N2CCCN(CC(C)C)CC2)n1 , thanks.
4.01

Requested field: cytotoxicity at 70.5 h. Item: Cc1ccc(SCCN(C)C(=O)c2cn(CCN)nn2)cc1
16.5

I am curious: what cytotoxicity at 70.5 h value has been reported for CC(C)OCCN1CCC(C(=O)c2cc(F)ccc2F)CC1 ?
25

Which value of cytotoxicity at 70.5 h has been reported for O=C(CSc1ccc2c(c1)OCCO2)NS(=O)(=O)C1CCCCC1 in the records?
0.938

Request the reported cytotoxicity at 70.5 h associated with O=C(O)C1(Cc2cccc(-c3ccc(F)cc3)c2)CCOCC1
9.21

Look at this molecule and give its reported cytotoxicity at 70.5 h. COCCC(=O)N1CCC2(CCCN(Cc3cc(OC)ccc3F)C2)C1 (centres undefined)
-6.14

For the molecule shown here, COc1ccccc1-n1cc(C(=O)NCCCn2nc(C)nc2C)cn1 , give the reported cytotoxicity at 70.5 h.
-9.68

Name the recorded cytotoxicity at 70.5 h for Cc1[nH]c2ccc(CNC(=O)c3ccc(CN4CCCC4)o3)cc2c1C .
-7.28

Look at this molecule and give its reported cytotoxicity at 70.5 h. CC(C)(C)c1cc(NC(=O)CN2CCCCC2Cn2cncn2)on1 (centres undefined)
-5.88

Using the record for Cc1ccc(C)c(Oc2ccc(CNC(=O)C3CCS(=O)(=O)C3)cn2)c1 (centres undefined) , report its cytotoxicity at 70.5 h.
-10.1

Consider the molecule Cc1nn(CCC#N)c(C)c1[C@@H]1C=C[C@@H](NCc2cccc(Cl)c2)C1 and give its measured cytotoxicity at 70.5 h.
-4.45

Give its cytotoxicity at 70.5 h value. Item: COCC(=O)N1CCC(c2nc3ccc(N4CCCC4)cn3n2)CC1
-5.18

Quick check: cytotoxicity at 70.5 h of COc1ccc(OC)c(CNc2nnc(C(C)(C)C)o2)c1 ?
-12.4

# query: cytotoxicity at 70.5 h of entry COCc1ncc(CN2CC[C@@](C)(O)[C@@H](Cc3ccccc3)C2)cn1
-1.9

Return reported cytotoxicity at 70.5 h; argument: O=C(O)c1nnn(-c2cccc(C(F)(F)F)c2)c1-c1ccncc1
5.64

Name the recorded cytotoxicity at 70.5 h for O=S(=O)(Cc1ccccc1)NCCNc1ccc(-n2cccc2)nn1 .
-13.6

# lookup: cytotoxicity at 70.5 h of O=C(O)C(c1ccc2c(c1)OCCO2)N1CCCC1 (centres undefined)
-3.29

###

- method: Human HepG2 cell viability assay in 384 well format
- Format: toxicity, cell-based
- Parameters: dose 125 nL, time 70.5 hour; concentration not given beside the values
- condition set: HepG2 cells, read-out: Inhibition
// cytotoxicity at 70.5 h lookup, one value per entry
Report the figure in % without appending any unit label.

- compound: "COc1cccc(CCC2CCCN(Cc3ncc[nH]3)C2)c1 (stereo not drawn)"
  cytotoxicity at 70.5 h, %: 29.4
- compound: "Cc1cccnc1CN1CCN(C(=O)CCn2ccc(=O)[nH]c2=O)CC1"
  cytotoxicity at 70.5 h, %: -9.8
- compound: "Cc1cc(C)n(C2CCCN(C(=O)c3c(C)c(C)n[nH]c3=O)C2)n1 (stereo not drawn)"
  cytotoxicity at 70.5 h, %: -8.79
- compound: "Cc1c(C)n2c(SCC(=O)N3CCCC3)nnc2[nH]c1=O"
  cytotoxicity at 70.5 h, %: -7.34
- compound: "Cc1cccc(C2(CNC(C)c3nnc(C)o3)CCCC2)c1 (stereo not drawn)"
  cytotoxicity at 70.5 h, %: -6.44

What cytotoxicity at 70.5 h value was documented for this compound, O=C(NCCCn1ccnc1)NCC(c1ccco1)N1CCCC1 (stereo not drawn) ?
5.06

I'd like to know its cytotoxicity at 70.5 h. The compound in question is CC(=O)c1ccc(C(=O)N2CCCCC2c2nc[nH]n2)cc1 (stereo not drawn)
1.34

// lookup cytotoxicity at 70.5 h for O=C(c1cnc(-c2ccccn2)s1)N1CCCC(n2cccn2)C1 (stereo not drawn)
10.2

Could you share which cytotoxicity at 70.5 h value was measured for Cc1nc(CN2CCN(C(=O)CCc3nc(C(C)(C)C)no3)CC2)cs1 ?
5.21

Need cytotoxicity at 70.5 h of O=C(NC1CC1)N1CC[C@H](OCC2CC2)[C@@H]1Cc1cccnc1 , thanks.
1.68

Data request, read-out cytotoxicity at 70.5 h, for CC(C)CNC(=O)c1nc2c(s1)CCN(C(=O)c1cccnc1)CC2
-4.69

Entry under review: COc1cccc2sc(N(C)CC(=O)NCc3nc(C)no3)nc12 . Reported cytotoxicity at 70.5 h?
-3.58

// lookup cytotoxicity at 70.5 h for COc1ccc(CN(C)CC(=O)c2ccc3[nH]c(=O)[nH]c3c2)cc1F
-6.51

Can you look up the measured cytotoxicity at 70.5 h of Cc1nn(C)c2cn(C(C)C(=O)NCc3ccc(F)cc3)nc12 (stereo not drawn) for me?
-3.15

Tell me the measured cytotoxicity at 70.5 h of COc1cccc(CC(=O)N2CCCC(c3n[nH]c4nccnc34)C2)c1 (stereo not drawn) , please.
-10.4

What does the record list as cytotoxicity at 70.5 h for CN(Cc1ccco1)C(=O)CN1C(=O)c2cc(Cl)c(Cl)cc2C1=O ?
-16.6

Look up cytotoxicity at 70.5 h for this compound: Cc1cc(C)nc(N2CCCC(c3cccc(-n4ccnc4)n3)C2)n1 (stereo not drawn)
-5.86

Look up cytotoxicity at 70.5 h for this compound: O=S(=O)(Cc1ccccc1)NCCc1nnc2n1CCC2
-7.99

May I ask what cytotoxicity at 70.5 h has been recorded for COc1cccc2cc(CNC(=O)N3CCOC(C)(C)C3)oc12 ?
14

# get_value(readout='cytotoxicity at 70.5 h', item= CCN(CC1CCCO1)C(=O)NCCNC(=O)c1ccccc1F (stereo not drawn) )
43.4

I have this compound here, O=C(NC[C@H]1OC[C@@H](NC2CCOCC2)[C@@H]1O)C1CCCC1 , and I need its recorded cytotoxicity at 70.5 h.
-6.06

Can you share its cytotoxicity at 70.5 h? I mean this compound: CC(C(=O)NS(=O)(=O)Cc1cc(-c2ccccc2)no1)C1CC1 (stereo not drawn)
-1.89

// returns reported cytotoxicity at 70.5 h for input Cc1cc(C)n(C2CN(c3ncnc4c3CCNCC4)C2)n1
-9
